Provenance of the data: ChEMBL document CHEMBL2440072

MEASUREMENT_DESCRIPTION: Plasma clearance in dog at 0.5 mg/kg, iv and 1 mg/kg, po
Format: ADME, organism-based, Canis lupus familiaris
PARAMETER_MEASURED: clearance (mL/min/kg)

A = Cc1cc(F)ccc1[C@H]1C[C@@H](N2CCN3C(=O)CC[C@H]3C2)CCN1C(=O)N(C)[C@H](C)c1cc(C(F)(F)F)cc(C(F)(F)F)c1 [ORVEPITANT]
B = Cc1cc(F)ccc1[C@H]1C[C@H](N2CCN3C(=O)CC[C@H]3C2)CCN1C(=O)N(C)[C@H](C)c1cc(C(F)(F)F)cc(C(F)(F)F)c1
## Input Param pair: A , B . Output: the one whose clearance is numerically greater. Label of pick, please.
## Output B
(B: 11 mL/min/kg, A: 6 mL/min/kg)
